- assay.notes: in vivo
- assay.setup: male, CD1, mouse, plasma, iv, 1 mg/kg
observed.property: Tmax (min)
All answers are understood in min, so give the number only.

* Cc1nc(Nc2ncc(C(=O)Nc3c(C)cccc3Cl)s2)cc(N2CCN(CCO)CC2)n1 [Compound A8, reference compound] | 4.8

Param item = `Cc1nc(Nc2ncc(C(=O)Nc3c(Cl)ccnc3C)s2)cc(N2CCN(CCO)CC2)n1` ; retrieve measured Tmax.
4.98

====

- assay.notes: in vivo
- assay.setup: male, CD1, mouse, in vivo, iv, 1 mg/kg
observed.property: MRT last (min)
Number in min, nothing else.

Would you mind telling me what MRT last value was observed for `Cc1nc(Nc2ncc(C(=O)Nc3c(C)csc3Cl)s2)cc(N2CCN(CCO)CC2)n1` ?
42

====

- assay.setup: human, microsomes
observed.property: Intrinsic clearance (L/min/mg)

Using the record for Cc1nc(Nc2ncc(C(=O)Nc3c(C)cncc3Cl)s2)cc(N2CCN(CCO)CC2)n1 [Compound C4] , report its Intrinsic clearance (L/min/mg).
115 µL/min/mg

Which Intrinsic clearance (L/min/mg) is reported for this compound? Cc1nc(Nc2ncc(C(=O)Nc3ncccc3C)s2)cc(N2CCN(CCO)CC2)n1 [Compound C2]
< 17 µL/min/mg

Would you mind telling me what Intrinsic clearance (L/min/mg) value was observed for Cc1nc(Nc2ncc(C(=O)Nc3c(C)noc3C)s2)cc(N2CCN(CCO)CC2)n1 [Compound C9] ?
< 14 µL/min/mg

Name the reported Intrinsic clearance (L/min/mg) value associated with the compound Cc1nc(Nc2ncc(C(=O)Nc3c(Cl)ccnc3C)s2)cc(N2CCN(CCO)CC2)n1 [Compound B3]
24 µL/min/mg

Request the reported Intrinsic clearance (L/min/mg) associated with Cc1nc(Nc2ncc(C(=O)Nc3c(C)nn(C)c3C)s2)cc(N2CCN(CCO)CC2)n1 [Compound C8]
< 14 µL/min/mg

====

As shown below, each of these compounds has a reported solubility kinetic value.
- assay.notes: physchem
- Assay type: physicochemical
- assay.setup: kinetic from dmso stock
# output: bare number, implied unit µM

* Cc1nc(Nc2ncc(C(=O)Nc3c(C)cncc3Cl)s2)cc(N2CCN(CCO)CC2)n1 [Compound C4] | 128

I have this compound here, Cc1nc(Nc2ncc(C(=O)Nc3c(Cl)ccnc3C)s2)cc(N2CCN(CCO)CC2)n1 [Compound B3] , and I need its recorded solubility kinetic.
82

====

- assay.notes: in vivo
- assay.setup: male, CD1, mouse, plasma, iv, 1 mg/kg
observed.property: AUC(0-t) (µM·h)
Give the quantity in µM·h, number only.

Can you share its AUC(0-t)? I mean this compound: Cc1nc(Nc2ncc(C(=O)Nc3c(Cl)ccnc3C)s2)cc(N2CCN(CCO)CC2)n1 [Compound B3]
0.437

====

SIK2 (Homo sapiens (Human), UniProt Q9H0K1): reported IC50 for various compounds.
Give a bare numeral; the unit nM is implied.

I am curious: what IC50 value has been reported for Cc1nc(Nc2ncc(C(=O)Nc3c(C)noc3C)s2)cc(N2CCN(CCO)CC2)n1 [Compound C9] ?
232

So what's the measured IC50 for this one? Cc1nc(Nc2ncc(C(=O)Nc3ncccc3C)s2)cc(N2CCN(CCO)CC2)n1 [Compound C2]
427

// IC50 lookup, key: Cc1nc(Nc2ncc(C(=O)Nc3c(Cl)ccnc3C)s2)cc(N2CCN(C)CC2)n1 [Compound C10]
138

From: patent US12172993B2
